- assay.name: Copper-binding ability: inhibition of cysteine autooxidation
- Type: biochemical
- condition.set: inhibitor concentration 50 μM; 100 μM Cys, 100 μM coumarin-3-carboxylic acid, 100 μM CuSO4
Reported % inhibition values are given for each entry in this list.

[
  {
    "compound": "C[N+](C)(C)c1ccccc1.C[N+](C)(C)c1ccccc1.[S]=[W](=[S])([S-])[S-]",
    "unit.symbol": "%",
    "% inhibition": 91.53
  },
  {
    "compound": "CC(=O)OCC[N+](C)(C)C.CC(=O)OCC[N+](C)(C)C.[S]=[W](=[S])([S-])[S-] [Tetrathiotungstate, bis(acetylcholine)]",
    "unit.symbol": "%",
    "% inhibition": 90.36
  },
  {
    "compound": "NCCNCCNCCN [trientine, reference compound]",
    "unit.symbol": "%",
    "% inhibition": 39.71
  },
  {
    "compound": "CCn1cc[n+](C)c1.CCn1cc[n+](C)c1.[S]=[W](=[S])([S-])[S-]",
    "unit.symbol": "%",
    "% inhibition": 91.16
  },
  {
    "compound": "[NH4+].[NH4+].[SH-].[SH-].[S]=[Mo]=[S] [Tetrathiomolybdate, bis(ammonium), reference compound]",
    "unit.symbol": "%",
    "% inhibition": 94.24
  }
]

###

- assay.name: Moisture stability of tetrathiotungstate salts
- Format: physicochemical
- condition.set: room temperature, 95% relative humidity, two weeks; purity by absorbance; * = partially soluble; ‡ = average of 2 data points
Reported % degradation values are given for each entry in this list.
test.readout: % degradation (%)

[
  {
    "molecule": "C[n+]1ccccc1C=NO.C[n+]1ccccc1C=NO.[S]=[W](=[S])([S-])[S-]",
    "test.readout": "% degradation",
    "readout.value": 5.6
  },
  {
    "molecule": "C[N+](C)(C)c1ccccc1.C[N+](C)(C)c1ccccc1.[S]=[W](=[S])([S-])[S-]",
    "test.readout": "% degradation",
    "readout.value": "−0.46"
  },
  {
    "molecule": "CCn1cc[n+](C)c1.CCn1cc[n+](C)c1.[S]=[W](=[S])([S-])[S-]",
    "test.readout": "% degradation",
    "readout.value": 1.3
  },
  {
    "molecule": "CC[N+](CC)(CC)c1ccccc1.CC[N+](CC)(CC)c1ccccc1.[S]=[W](=[S])([S-])[S-]",
    "test.readout": "% degradation",
    "readout.value": "−0.12"
  },
  {
    "molecule": "CC(=O)OC(C)C[N+](C)(C)C.CC(=O)OC(C)C[N+](C)(C)C.[S]=[W](=[S])([S-])[S-] (stereo not drawn)",
    "test.readout": "% degradation",
    "readout.value": 4.2
  },
  {
    "molecule": "C[N+]1(C)CCCC1.C[N+]1(C)CCCC1.[S]=[W](=[S])([S-])[S-]",
    "test.readout": "% degradation",
    "readout.value": 0.04
  },
  {
    "molecule": "C[N+](C)(C)Cc1ccccc1.C[N+](C)(C)Cc1ccccc1.[S]=[W](=[S])([S-])[S-]",
    "test.readout": "% degradation",
    "readout.value": 0.41
  },
  {
    "molecule": "Cc1cc[n+](C)cc1.Cc1cc[n+](C)cc1.[S]=[W](=[S])([S-])[S-]",
    "test.readout": "% degradation",
    "readout.value": 2.0
  }
]
